# experiment.notes: Animal parameters (food, body weight, liver weight/body weight, mortality) in rats
# Assay type: in vivo
# experimental.setup: % of control; liver weight/body weight; rat; diet 0.3%, 4 days; N = 5
# Experimental: A typical experiment consists of 4-6 groups of rats (N = 5 per group) with I group being a control which receives no MDL compound and the other groups being treated with 0.3% MDL compound. Some of the compounds are either repeated at 0.3% or evaluated again at the lower dose of 0.1%. […] Deaths are recorded as mortality. […]
metric: lw/bw (%)
Numbers only, in %.

Below, 4 molecules whose answers are already recorded.
lw/bw recorded for this molecule, CC(C)=CCC[C@H](C)CCOc1cc(C(C)(C)C)c(O)cc1C(C)(C)C , is 107

In plain terms, CC(C)CCCC(C)CCOc1ccc(O)c(C(C)(C)C)c1 (centres unmarked) has a documented lw/bw of 126

Entry CC(C)=CCCC(C)CCOc1ccc(O)c(C(C)(C)C)c1 (centres unmarked) ; lw/bw = 114

// lw/bw lookup, molecule = CC(C)=CCCC(C)CCSc1cc(C(C)(C)C)c(O)c(C(C)(C)C)c1 (centres unmarked) , result: 130

More entries:
Measured lw/bw, CC(C)=CCC[C@H](C)CCOc1cc(C(C)(C)C)c(O)c(C(C)(C)C)c1 : 129
